Molecular target: T1, SlHY5 (GST-HY5) (Solanum lycopersicum, UniProt Q9SM50 1-158)
T1 sequence: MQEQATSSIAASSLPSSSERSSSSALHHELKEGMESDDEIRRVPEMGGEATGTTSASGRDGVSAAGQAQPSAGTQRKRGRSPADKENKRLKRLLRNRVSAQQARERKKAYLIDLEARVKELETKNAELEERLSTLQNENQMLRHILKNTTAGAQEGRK
Assay: EMSA; LightShift Chemiluminescent EMSA kit, 25 min at 22 C, 6% native PAGE; buffer, salt and pH not stated
Details: protein: recombinant; tags: GST (pGEX-4T-1); chain copies: 2; label: biotin; blunt
attribute.measured: binding result

[[record]]
binder = "GAME2 probe (dsDNA) DNA 1: ATCCCAAAAGAGTTGTTAGGTCGTGCACAAAACCCGTTTTCTGCGAAAAT DNA 2: ATTTTCGCAGAAAACGGGTTTTGTGCACGACCTAACAACTCTTTTGGGAT"
observed_value = "no binding"

[[record]]
binder = "GAME11 probe (dsDNA) DNA 1: AAGTAAATTATAAATATACGTGACGAAAACGATCTTTAAAATTCTTTGTA DNA 2: TACAAAGAATTTTAAAGATCGTTTTCGTCACGTATATTTATAATTTACTT"
observed_value = "no binding"

[[record]]
binder = "GAME18 probe (dsDNA) DNA 1: TGATACAACTAAAAGACATACGTTTAAAAAAGCAAATTGATCAAGTCGTTTG DNA 2: CAAACGACTTGATCAATTTGCTTTTTTAAACGTATGTCTTTTAGTTGTATCA"
observed_value = "no binding"

